Biological target: human CD38 on cells (human, UniProt P28907 1-300)
Assay: cell-based or functional assay
quantity: apoptosis, Annexin V-positive Ramos cells after subtraction of the non-treated control

binder	result
38SB39 murine anti-CD38 monoclonal antibody (antibody, V domains shown, Murine hybridoma antibody; also called hybridoma PTA-7671) VH: NVQLVESGGGLVQPGGSRKLSCAASGFTFSNFGMHWVRQAPEKGLEWVAYIRSGSGTIYYSDTVKGRFTISRDNPKNTLFLQMTSLRSEDTAMYYCARSYYDFGAWFAYWGQGTLVTVSA VL: DIVMTQSQKFMSTSVGDRVSVTCKASQNVGTNVAWYQHKPGQSPKIMIYSASSRYSGVPDRFTGSGSGTLFTLTINNVQSEDLAEYFCQQYNSYPLTFGSGTKLEIKR	≥ 7%

Now consider the entry below.
// field: apoptosis, Annexin V-positive Ramos cells after subtraction of the non-treated control; key: 38SB30 murine anti-CD38 monoclonal antibody (antibody, V domains shown, Murine hybridoma antibody; also called hybridoma PTA-7666) VH: QVQLQQSGPELVRPGASVKISCKTSGYAFSGSWMNWVKQRPGQGLEWIGRIYPGDGDIIYNGNFRDKVTLSADKSSNTAYMQLSSLTSVDSAVYFCSRWGTFTPSFDYWGQGTTLTVSS VL: DIVMTQSHKFLSTSVGDRVSITCKASQDVVTAVAWFQQKPGQSPKLLIYSASHRYTGVPDRFTGSGSGTDFTFTIISVQAEDLAVYYCQQHYTTPTTFGGGTKLDFRR ; value = ≥ 7%
